MEASURED_ON: Type-2 angiotensin II receptor (Homo sapiens, UniProt P50052)
Sequence (P50052 whole entry): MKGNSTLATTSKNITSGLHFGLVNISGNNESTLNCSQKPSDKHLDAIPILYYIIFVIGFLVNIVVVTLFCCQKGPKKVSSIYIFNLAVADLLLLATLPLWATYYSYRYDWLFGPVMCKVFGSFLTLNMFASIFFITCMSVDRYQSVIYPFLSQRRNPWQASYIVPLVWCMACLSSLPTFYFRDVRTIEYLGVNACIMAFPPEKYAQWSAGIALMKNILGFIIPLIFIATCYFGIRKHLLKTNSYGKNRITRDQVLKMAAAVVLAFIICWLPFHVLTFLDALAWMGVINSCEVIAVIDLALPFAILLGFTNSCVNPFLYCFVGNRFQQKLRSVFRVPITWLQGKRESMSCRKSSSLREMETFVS
IC50 values for Type-2 angiotensin II receptor (Homo sapiens, UniProt P50052), compiled from several publications.
PROPERTY_LABEL: IC50 (nM)

A selection of reference data follows.
>  <COMPOUND>
CCCc1nc(CC)c(C(=O)OCc2ccccc2S(=O)(=O)c2ccccc2)n1Cc1ccc(-c2ccccc2S(=O)(=O)NC(=O)OCCC(C)C)cc1F

>  <RESULT_UNIT>
nM

>  <IC50>
5

$$$$
>  <COMPOUND>
CCCCN(Cc1ccccc1)C(=O)CCCOC(=O)c1c(CC)nc(CCC)n1Cc1ccc(-c2ccccc2S(=O)(=O)NC(=O)OCCC(C)C)cc1F

>  <RESULT_UNIT>
nM

>  <IC50>
5

$$$$
>  <COMPOUND>
CCCc1nc(CC)c(C(=O)OCCCC(=O)Nc2ccccc2)n1Cc1ccc(-c2ccccc2S(=O)(=O)NC(=O)OCCC(C)C)cc1F

>  <RESULT_UNIT>
nM

>  <IC50>
5

$$$$
>  <COMPOUND>
CCCCN(Cc1ccccc1)Cc1nc(CCC)n(Cc2ccc(-c3ccccc3-c3nnn[nH]3)cc2)c1C(=O)O

>  <RESULT_UNIT>
nM

>  <IC50>
90

$$$$
>  <COMPOUND>
CCCCOC(=O)NS(=O)(=O)c1ccccc1-c1ccc(Cn2c(CCC)nc(CN3CCN(c4ccccn4)CC3)c2C(=O)O)cc1

>  <RESULT_UNIT>
nM

>  <IC50>
90

$$$$
>  <COMPOUND>
CCCc1nc(CC)c(C(=O)OCc2ccccc2C(=O)c2ccccc2)n1Cc1ccc(-c2ccccc2S(=O)(=O)NC(=O)OCCC(C)C)cc1

>  <RESULT_UNIT>
nM

>  <IC50>
1.9

$$$$

[1] CCCNC(=O)NS(=O)(=O)c1ccccc1-c1ccc(Cn2c(CCC)nc(SC)c2C(=O)O)cc1
[2] CCCc1nc(CN(Cc2ccccc2)C(=O)Nc2ccccc2)c(C(=O)O)n1Cc1ccc(-c2ccccc2-c2nnn[nH]2)cc1
// compare measured IC50 between 1 and 2 ; output the lower one Answer with the label corresponding to your selection. 2

[P] CCCc1nc2c(C)cc(C(=O)N3CCCCC3)cc2n1Cc1ccc(-c2ccccc2C(=O)O)cc1
[Q] CCCc1nc2c(C)cc(NC(=O)Cc3ccccc3)cc2n1Cc1ccc(-c2ccccc2C(=O)O)cc1
[R] CCCc1nc(CC)c(C(=O)OCc2ccccc2C(=O)c2ccccc2)n1Cc1ccc(-c2ccccc2-c2nnn[nH]2)cc1
Give the ascending ranking of the items by reported IC50. Put the labels in the requested order and list them out. P, Q, R

[P] CCCc1nc(CN2CCN(c3ccc(F)cc3)CC2)c(C(=O)O)n1Cc1ccc(-c2ccccc2-c2nn[nH]n2)cc1
[Q] CCCC1=NC(C)(C)C(=O)N1Cc1ccc(-c2ccccc2S(=O)(=O)NC(=O)c2ccccc2)cc1
Hi, I'm comparing P with Q and wondering which one has the bigger number for IC50. Any idea? Answer with the label corresponding to your selection. Q
(Q: 200 nM, P: 80 nM)
